Data provenance is patent US20150283240A1.

Entries annotated with measured Stabilized Chlorine Dioxide Concentration, 7 Days
- assay.context: ingredient added at stated ppm to proprietary brimonidine composition; 7 days
attribute.measured: Stabilized Chlorine Dioxide Concentration, 7 Days (ppm)

{"columns": ["molecule", "assay.result"],
 "data": [
  ["O=C[O-].[Na+] [Sodium Formate]", 40],
  ["O=C([O-])/C(O)=C(\\O)C(=O)[O-].[Na+].[Na+] [Sodium Dihydroxyfurmarate]", 13],
  ["CC(O)C(=O)[O-].[Na+] (centres unmarked) [Sodium Lactate]", 40],
  ["O=C(O)CN(CCN(CC(=O)O)CC(=O)O)CC(=O)O", 2],
  ["O=C([O-])C(=O)[O-].[Na+].[Na+] [Sodium Oxalate]", 38]
]}

====

- assay.context: ingredient added at stated ppm to proprietary brimonidine composition; 0 days
Mark Not fulfilled for Stabilized Chlorine Dioxide Concentration, 0 Days values under 40 ppm, and Fulfilled for everything at or above.

{"columns": ["molecule", "discrete.label"],
 "data": [
  ["O=C(O)CN(CCN(CC(=O)O)CC(=O)O)CC(=O)O", "Fulfilled"],
  ["O=C([O-])/C(O)=C(\\O)C(=O)[O-].[Na+].[Na+] [Sodium Dihydroxyfurmarate]", "Not fulfilled"],
  ["CC(O)C(=O)[O-].[Na+] (centres unmarked) [Sodium Lactate]", "Fulfilled"],
  ["O=C[O-].[Na+] [Sodium Formate]", "Fulfilled"]
]}

====

- assay.context: excipients of Table 1 in brimonidine composition
attribute.measured: Stabilization of chlorine dioxide (in words)

{"columns": ["molecule", "assay.result"],
 "data": [
  ["O=C([O-])C(=O)[O-].[Na+].[Na+] [Sodium Oxalate]", "ineffective"],
  ["NCCN", "do not stabilize"],
  ["CC(=O)C(=O)[O-].[Na+] [Sodium Pyruvate]", "ineffective"],
  ["O=C(O)CN(CCN(CC(=O)O)CC(=O)O)CC(=O)O", "do not stabilize"]
]}

====

- assay.context: ingredient added at stated ppm to proprietary brimonidine composition; 14 days
Entries annotated with measured Stabilized Chlorine Dioxide Concentration, 14 Days
attribute.measured: Stabilized Chlorine Dioxide Concentration, 14 Days (ppm)

{"columns": ["compound", "assay.result"],
 "data": [
  ["O=C([O-])/C(O)=C(\\O)C(=O)[O-].[Na+].[Na+] [Sodium Dihydroxyfurmarate]", 0],
  ["O=C(O)CN(CCN(CC(=O)O)CC(=O)O)CC(=O)O", 0],
  ["O=C([O-])C(=O)[O-].[Na+].[Na+] [Sodium Oxalate]", 35],
  ["CC(O)C(=O)[O-].[Na+] (centres unmarked) [Sodium Lactate]", 37],
  ["O=C[O-].[Na+] [Sodium Formate]", 36]
]}
